biological target: DAEFRH-peptide-specific monoclonal antibody (Example 1); assay: inhibition ELISA, competitor plate-bound DAEFRH-C-BSA
Quantity measured: IC50

{"columns": ["Binder", "IC50"],
 "data": [
  ["DWEFRD [Peptide 4025]", "< 0.5 µg/mL"],
  ["SQEFRTP [Peptide 4023]", "< 0.5 µg/mL"],
  ["GPEFRW [Peptide 4034]", "< 0.5 µg/mL"],
  ["SYEFRHH [Peptide 4022]", "< 0.5 µg/mL"],
  ["YAEFRGC [Peptide 3005]", "> 0.5 µg/mL"],
  ["DWEFRDAC [Peptide 1241]", "< 0.5 µg/mL"]
]}

Give the reported IC50 for this binder. EYEFRGC [Peptide 1239] > 0.5 µg/mL

Give the reported IC50 for this binder. ELEFRGC [Peptide 3008] < 5 µg/mL
